Below: a set of entries, each annotated with reported Stability of Cannabinoids in AB Red.
Test: Stability of cannabinoid and Vitamin E components of Beverage 2 (AB Red) stored at 8° C. and 21-25° C., LCMSMS over 570 days
Conditions: 21-25° C., 12 days
// return numeric value only (unit: µg/mL, not printed)

> print(dat)
                                   molecule  observed.result
1  CCCc1cc(O)c2c(c1)OC(C)(C)[C@@H]1CCC(C)=C[C@@H]21 [THCV, delta-9-tetrahydrocannabivarin]             3.24
2  C=C(C)[C@@H]1CCC(C)=C[C@H]1c1c(O)cc(CCC)cc1O             0.20
3  CCCCCc1cc(O)c2c(c1)OC(C)(C)[C@@H]1CCC(C)=C[C@@H]21 [D9 THC, delta-9-tetrahydrocannabinol, reference compound]             13.0
4  CCCCCc1cc2c(c(O)c1C(=O)O)[C@@H]1C=C(C)CC[C@H]1C(C)(C)O2 [D9 THCA, delta-9-tetrahydrocannabinolic acid]             1.33
5  C=C(C)[C@@H]1CCC(C)=C[C@H]1c1c(O)cc(CCCCC)c(C(=O)O)c1O             1.70
6  CCCCCc1cc(O)c2c(c1)OC(C)(C)c1ccc(C)cc1-2             2.70

The recorded Stability of Cannabinoids in AB Red for entry CCCCCc1cc(O)c2c(c1)OC1(C)CCC3C1C2C3(C)C (stereo not drawn) equals 0.50

The recorded Stability of Cannabinoids in AB Red for entry CCCCCc1cc(O)c(C/C=C(\C)CCC=C(C)C)c(O)c1 equals 4.62

The recorded Stability of Cannabinoids in AB Red for entry CCCCCc1cc(O)c2c(c1)OC(C)(CCC=C(C)C)C=C2 (stereo not drawn) equals 0.28

---

Type: physicochemical
Details: stored at room temperature (21-25° C.), day 2
Below: a set of entries, each annotated with reported Stability in Powder Concentrate (content by LCMSMS).
// return numeric value only (unit: mg/g powder, not printed)

In the examples that follow, each entry is paired with its recorded Stability in Powder Concentrate (content by LCMSMS).
> print(dat)
                                   molecule  observed.result
1  CCCCCc1cc(O)c2c(c1)OC(C)(C)[C@@H]1CCC(C)=C[C@@H]21 [D9 THC, delta-9-tetrahydrocannabinol, reference compound]             2.46
2  C=C(C)[C@@H]1CCC(C)=C[C@H]1c1c(O)cc(CCCCC)cc1O [CBD, cannabidiol, reference compound]             5.76

Please look at the following molecule next.
The recorded Stability in Powder Concentrate (content by LCMSMS) for entry Cc1c(C)c2c(c(C)c1OC(=O)CCC(=O)O)CC[C@@](C)(CCC[C@H](C)CCC[C@H](C)CCCC(C)C)O2 [α-Tocopheryl succinate] equals 1.81

---

Experiment: Stability of cannabinoid and Vitamin E components of Beverage 2 (AB Red) stored at 8° C. and 21-25° C., LCMSMS over 570 days
Conditions: 21-25° C., 10 days
Each entry falls into one class according to its Stability of Cannabinoids in AB Red; the ranges are range 1: < 0.5 µg/mL; range 2: ≥ 0.5 µg/mL and < 3 µg/mL; range 3: ≥ 3 µg/mL

Answered examples (6):
> print(dat)
                                   compound  qualitative.label
1  CCCCCc1cc(O)c2c(c1)OC(C)(C)c1ccc(C)cc1-2 [CBN, cannabinol]            range 2
2  C=C(C)[C@@H]1CCC(C)=C[C@H]1c1c(O)cc(CCC)cc1O [CBDV, cannabidivarin]            range 1
3  CCCCCc1cc(O)c2c(c1)OC(C)(C)[C@@H]1CCC(C)=C[C@@H]21 [D9 THC, delta-9-tetrahydrocannabinol, reference compound]            range 3
4  CCCCCc1cc(O)c(C/C=C(\C)CCC=C(C)C)c(O)c1 [CBG, cannabigerol]            range 3
5  C=C(C)[C@@H]1CCC(C)=C[C@H]1c1c(O)cc(CCCCC)c(C(=O)O)c1O [CBDA, cannabidiolic acid]            range 2
6  CCCCCc1cc2c(c(O)c1C(=O)O)[C@@H]1C=C(C)CC[C@H]1C(C)(C)O2 [D9 THCA, delta-9-tetrahydrocannabinolic acid]            range 2

Now let's try a different one.
Prompt line: State the class of the compound shown: CCCCCc1cc(O)c2c(c1)OC(C)(CCC=C(C)C)C=C2 (stereo not drawn) [CBC, cannabichromene]
Response line: range 1
